The reported numbers originate from patent US4562275A.

# Tested on: L1210 leukemia
# Protocol summary: Antitumor activity vs transplantable L1210 leukemia (ip) in mice
# Type: in vivo, mouse
# Run parameters: L1210, QD 1 → 5, ip
Readout type: O.D. (optimal dose) (mg/kg/inj)
Respond with the bare value in mg/kg/inj.

>  <Compound>
CC(=O)CC(=O)[O-].CC(=O)CC(=O)[O-].N[C@@H]1CCCC[C@H]1N.[Pt+2] (relative stereo)

>  <O.D. (optimal dose) [mg/kg/inj]>
5

$$$$
>  <Compound>
NCC1(N)CCCCCCC1.O=C([O-])CP(=O)([O-])[O-].[H+].[Pt+2]

>  <O.D. (optimal dose) [mg/kg/inj]>
10

$$$$
>  <Compound>
Cc1cn(C2CC(O)C(COP(=O)([O-])[O-])O2)c(=O)[nH]c1=O.NC1CCCCC1N.[Pt+2] (stereo not shown)

>  <O.D. (optimal dose) [mg/kg/inj]>
10

$$$$

Consider the additional compound presented here.
Query: Recorded O.D. (optimal dose) for N[C@@H]1CCCC[C@H]1N.[O]=[Mn](=[O])([O-])[O-].[Pt+2] , please?
Result: 2.5

----------
# System: L1210 leukemia
# Protocol summary: Antitumor activity vs transplantable L1210 leukemia (ip) in mice
# Format: in vivo, mouse
# Run parameters: L1210, QD 1 → 5, ip; dying mice only
Recorded Max % T/C by entry
Don't forget the unit after the value.

>  <Compound>
N[C@@H]1CCCC[C@H]1N.O=C([O-])C(F)(F)C(F)(F)C(F)(F)F.O=C([O-])C(F)(F)C(F)(F)C(F)(F)F.[Pt+2] (relative stereo)

>  <Target or system>
L1210 leukemia

>  <Max % T/C>
186%

$$$$

Query: Reported Max % T/C for L1210 leukemia, given N[C@@H]1CCCC[C@H]1N.[O]=[Mn](=[O])([O-])[O-].[Pt+2] ?
Result: 293%

Query: Reported Max % T/C for L1210 leukemia, given NCC1(N)CCCCCCC1.[O-]B([O-])O.[Pt+2] ?
Result: 207%

Query: Reported Max % T/C for L1210 leukemia, given N[C@@H]1CCCC[C@H]1N.O=C([O-])CC(=O)C(=O)[O-].[Pt+2] (relative stereo) ?
Result: 243%

----------
Recorded Max % T/C by entry
# Tested on: L1210/CDDP (cisplatin resistant line of L1210 leukemia)
# Protocol summary: Antitumor activity vs cisplatin-resistant L1210 leukemia (L1210/CDDP) in mice
# Type: in vivo, mouse
# Run parameters: Day 1, dying mice only
Respond with the bare value in %.

Previously resolved entries follow.
>  <Compound>
N[C@@H]1CCCC[C@H]1N.O=C([O-])CC(=O)C(=O)[O-].[Pt+2] (relative stereo)

>  <Readout type>
Max % T/C

>  <Observed value>
194

$$$$
>  <Compound>
CCC(=O)C(=O)[O-].CCC(=O)C(=O)[O-].N[C@@H]1CCCC[C@H]1N.[Pt+2] (relative stereo)

>  <Readout type>
Max % T/C

>  <Observed value>
144

$$$$

Query: Recorded Max % T/C for N[C@@H]1CCCC[C@H]1N.[O-]B([O-])O.[Pt+2] , please?
Result: 188

Query: Recorded Max % T/C for Cc1cn(C2CC(O)C(COP(=O)([O-])[O-])O2)c(=O)[nH]c1=O.NC1CCCCC1N.[Pt+2] (stereo not drawn) , please?
Result: 175

Query: Recorded Max % T/C for CC(C)CC(C)(N)CN.[O-]B([O-])O.[Pt+2] (stereo not drawn) , please?
Result: 307

Query: Recorded Max % T/C for N[C@@H]1CCCC[C@H]1N.[O]=[Mn](=[O])([O-])[O-].[Pt+2] , please?
Result: 181
